- TEST_TARGET: T1, 4H3364-bN
- T1 chain: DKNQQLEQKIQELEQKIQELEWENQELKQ
- METHOD: two-hybrid library CCNG1;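 note: natural log of median RNA to DNA barcode read ratio; higher means stronger binding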
Output Y for records whose interaction score is lower than -0.4, N for records at or above -0.4.

Solved cases (9 shown):
{"columns": ["BINDER", "CLASS_ASSIGNMENT"],
 "data": [
  ["DKIQQLEQKNQELKQENQELEWKIQELKQ [4H2518-bN]", "Y"],
  ["DKNQQLEQKIQELEQKIQELEWENQELKQ [4H3364-bN]", "N"],
  ["DEIQQLEQENQELKQKIQELKWENQELEQ [4H235-bN]", "N"],
  ["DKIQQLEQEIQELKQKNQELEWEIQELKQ [4H2162-bN]", "Y"],
  ["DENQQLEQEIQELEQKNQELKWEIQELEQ [4H1081-bN]", "N"],
  ["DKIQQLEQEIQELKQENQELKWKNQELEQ [4H2143-bN]", "Y"],
  ["DKIQQLKQKNQELKQKIQELEWEIQELEQ [4H3041-bN]", "Y"],
  ["DEIQQLEQENQELEQKIQELEWKIQELKQ [4H166-bN]", "N"],
  ["DKIQQLKQENQELKQEIQELEWKNQELKQ [4H2760-bN]", "N"]
]}

Continue with the next binder.
Identify whether the binder DKNQQLEQENQELKQKIQELEWEIQELEQ [4H3297-bN] records interaction score below -0.4.
Y

All values here come from paper PMC10397247.
